Test system: MDA-MB-361 (Breast Carcinoma);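 also: after 72 h of two-drug dosing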
Assay: Bliss excess, mean over the matrix (fraction); higher = more synergy
I'd appreciate it if you could supply Bliss excess values for the items below.
Answers are plain numbers.

molecule	Bliss excess
CC1(C)CCC(CN2CCN(c3ccc(C(=O)NS(=O)(=O)c4ccc(NCC5CCOCC5)c([N+](=O)[O-])c4)c(Oc4cnc5[nH]ccc5c4)c3)CC2)=C(c2ccc(Cl)cc2)C1 [Venetoclax] + C[C@@H]1COCCN1C2=NC(=NC(=C2)C3(CC3)[S@](=N)(=O)C)C4=C5C=CNC5=NC=C4 [AZD6738] (first compound max 1 µM, 7x7, partner max 10 µM)	-0.0214

Could you tell me Bliss excess for each of these molecules? They are listed below.
1. CN(CCO)CC[C@H](CSc1ccccc1)Nc1ccc(S(=O)(=O)NC(=O)c2ccc(N3CCC([C@@H](O)c4ccccc4-c4ccc(Cl)cc4)CC3)cc2)cc1S(=O)(=O)C(F)(F)F [AZD4320] + C=CCn1c(=O)c2cnc(Nc3ccc(N4CCN(C)CC4)cc3)nc2n1-c1cccc(C(C)(C)O)n1 [AZD1775] (first compound max 1 µM, partner max 1 µM)
2. Cc1cc2ncnn2cc1Nc1ncc2c(n1)n(C1CCOCC1)c(=O)n2C [AZD7648] + O=C(c1cc(Cc2n[nH]c(=O)c3ccccc23)ccc1F)N1CCN(C(=O)C2CC2)CC1 [Olaparib] (first compound max 10 µM, 7x7, partner max 10 µM)
3. COc1cccc(OCCCN)c1-c1cc(Nc2cnc(C#N)cn2)n[nH]1 [Prexasertib] + CCc1c2c(nc3ccc(O)cc13)-c1cc3c(c(=O)n1C2)COC(=O)[C@]3(O)CC [SN-38] (first compound max 1 µM, 7x7, partner max 0.3 µM)

1: -0.034; 2: -0.0204; 3: -0.0298

Cited source: the supplement of paper PMC11061612
